Source: PubChem BioAssay (NCI)

# Test system: 786-0 renal
# TEST DESCRIPTION: NCI-60 one-dose screen, 48 h (100 = growth as untreated, 0 = no growth, -100 = all killed)
# CONDITION CONTEXT: 10 µM unless noted
This is part of a sample that, as a whole, favours compounds with a hit. Of some 83,000 tested, about 20% had one in any assay.
Param label: returns YES when growth < 20%, returns NO otherwise, including exact equality.

CNC(=O)c1cc(Oc2ccc3nc(NC(=O)Nc4ccc(Cl)c(C(F)(F)F)c4)sc3c2)ccn1 = YES
Cc1cc(N(CCNc2ccnc3cc(Cl)ccc23)Cc2ccc3c(c2)OCO3)nc(N2CCN(C)CC2)n1 = YES
COCCN1CCN(Cc2ccc(-c3n[nH]c4c3C(=O)c3c(NC(=O)NN5CCOCC5)cccc3-4)cc2)CC1 = YES

Asked: Identify whether the compound COC(=O)C1=C(C(=O)OC)C23C=C(C)C1C2=C(C)C1(CC1)[C@@](C)(O)C3=O (stereo partly drawn) records growth below 20%.
Given back: YES

Asked: Identify whether the compound CC(C)(C)C(=O)OCOP(=O)(OCOC(=O)C(C)(C)C)C1CCCN(OC(=O)c2ccccc2)C1=O (stereo not drawn) records growth below 20%.
Given back: YES

Asked: Identify whether the compound Nc1c(Cl)cccc1[N+](=O)[O-] records growth below 20%.
Given back: NO

Asked: Identify whether the compound O=C1C=CC2(NN=C(c3ccccc3)N2c2ccc(Cl)cc2)c2cccc(O)c21 (stereo not drawn) records growth below 20%.
Given back: NO

Asked: Identify whether the compound C=CCCCC(=O)CCC(=O)OCC1O[C@@H](O[C@@H]2C(O)[C@@H](OC(C)=O)C(C)O[C@H]2O[C@H](CC=C)CCCCC)C(O)[C@@H](OC(=O)/C(C)=C/C)[C@@H]1OC(=O)/C=C/c1ccccc1 (stereo partly drawn) records growth below 20%.
Given back: YES
